- Test Details: qHTS RealTime-Glo MT Cell Viability Assay in HEK293 cells - 8 hour (AID 1224887); further: nearly all actives have a fitted effect of over 50% in size
- Test Parameters: RealTime-Glo luminescence; series mostly up to 76.8 µM
Results filed as inconclusive are left out. Calls of active or inactive are those of the source. The call rests on the fitted dose curve; in most records, active means well fitted cell-killing curve with a large enough effect in the repeat runs; inconclusive means weak or mixed curves, or effect the other way; inactive means flat fitted curve, though single readings scatter.
Outcomes: active, inactive

# Compound, Label Value
data = [
    ("O=C(O)c1cc(N=Nc2ccc([N+](=O)[O-])cc2)ccc1O", "inactive"),
    ("Nc1ccc(NCCO)c([N+](=O)[O-])c1", "inactive"),
    ("CN1CCCCC1CCN1c2ccccc2Sc2ccc(S(C)=O)cc21 (stereo unspecified)", "inactive"),
    ("OCC(F)(F)F", "inactive"),
    ("CCCC(=O)OC(C)(C)Cc1ccccc1", "inactive"),
    ("O=C1CCc2cc(OCCCCc3nnnn3C3CCCCC3)ccc2N1", "inactive"),
    ("[Cl][Pt-2]([Cl])([Cl])[Cl]", "inactive"),
    ("COC1=C(OC)C(=O)C(CCCCCCCCCCO)=C(C)C1=O", "active"),
    ("CC/C=C\\CCCCCO", "inactive"),
    ("Cc1cccc(C(=O)O)c1O", "inactive"),
    ("CCC(COC(=O)CCS)(COC(=O)CCS)COC(=O)CCS", "inactive"),
    ("Cc1cccc(C)c1NC(=O)c1ccc(N)cc1", "inactive"),
    ("CCC(CC)(CC(=O)Nc1cccc(/C=C/c2nc(C3CCC3)cs2)c1)C(=O)O", "inactive"),
    ("CCCCOC(=O)CO", "inactive"),
    ("OC[C@@H](O)[C@@H](O)CO", "inactive"),
    ("Cc1c(C)c([N+](=O)[O-])c(C(C)(C)C)c([N+](=O)[O-])c1C", "inactive"),
]

* * *

- Test Details: qHTS assay for small molecules that induce genotoxicity in human embryonic kidney cells expressing luciferase-tagged ATAD5 - cell viability (AID 651634); further: nearly all actives have a fitted effect of over 25% in size
- Test Parameters: HEK293T ATAD5-luc cells viability, CellTiter-Fluor, 15.5 h; series mostly up to 83.3 µM
Records with an inconclusive call do not appear. The source made the active and inactive calls. Calls follow the shape of the full dose curve.

# Chemical String, outcome
records = [
    ("CC(C)(C)C1CCC(=O)CC1", "inactive"),
    ("OCC(F)(F)F", "inactive"),
    ("Cc1cccc(C(=O)O)c1O", "inactive"),
    ("CCCCOC(=O)CO", "inactive"),
    ("CN1CCC[C@@H]1CCO[C@](C)(c1ccccc1)c1ccc(Cl)cc1", "inactive"),
]

* * *

- Test Details: qHTS assay to identify small molecule agonists of H2AX - cell viability counter screen (AID 1224847); further: nearly all actives have a fitted effect of over 30% in size
- Test Parameters: CHO-K1 viability, CellTiter-Glo luminescence, 3 h; series mostly up to 154 µM
Results filed as inconclusive are left out. Activity calls are given as the source filed them. The call rests on the fitted dose curve.
Outcomes: active, inactive

# Molecule, Label Value
rows = [
    ("c1ccsc1", "inactive"),
    ("Nc1nc2c(ncn2COCCO)c(=O)[nH]1", "inactive"),
    ("OCC(F)(F)F", "inactive"),
    ("CCCCCCCCCCOC(=O)c1ccccc1C(=O)OCCCCCCCC", "inactive"),
    ("Cl[Si](Cl)(c1ccccc1)c1ccccc1", "inactive"),
    ("CC(=O)c1ccc(C(C)=O)cc1", "inactive"),
    ("Oc1ccccc1O", "inactive"),
    ("OC1CCCc2ccccc21 (stereo not given)", "inactive"),
    ("CCc1ccc(Br)cc1", "inactive"),
    ("Cc1ccc(C(C)C)cc2c(C)ccc1-2", "inactive"),
    ("CCC(=O)OC(=O)CC", "inactive"),
    ("C=C(C)c1cccc(C(=C)C)c1", "inactive"),
    ("COC(=O)Nc1nc2ccc(C(=O)c3ccccc3)cc2[nH]1", "inactive"),
    ("CC1(C)CC(O)CC(C)(C)N1", "inactive"),
    ("O[C@@H]([C@H](O)[C@H](O)CBr)[C@H](O)CBr", "inactive"),
    ("CNc1ccc([N+](=O)[O-])cc1", "inactive"),
    ("CC(C)(C)c1ccc(C(O)CCCN2CCC(C(O)(c3ccccc3)c3ccccc3)CC2)cc1 (stereo not given)", "active"),
    ("O=S(=O)(O)c1ccccc1/C=C/c1ccc(-c2ccc(/C=C/c3ccccc3S(=O)(=O)O)cc2)cc1", "inactive"),
    ("Oc1c(I)cc(Cl)c2cccnc12", "inactive"),
    ("CCO[Si](OCC)(OCC)OCC", "inactive"),
    ("O=C(O)[C@H](O)[C@@H](O)[C@H](O[C@@H]1O[C@H](CO)[C@H](O)[C@H](O)[C@H]1O)[C@H](O)CO", "inactive"),
    ("Cc1ccc(-c2ccccc2)cc1", "inactive"),
    ("CCCCOC(=O)CO", "inactive"),
    ("C=CC(=O)OCCOC(=O)C=C", "inactive"),
    ("CCCc1ccc(OCC(=O)N2CCN(C(=O)COc3ccc(CCC)cc3OC)CC2)c(OC)c1", "inactive"),
]
